biological target: F II (Homo sapiens); construct: from tissue; host or cells: human citrated blood plasma; experiment: Coagulation factor II activity in plasma after reducing agent + iodoacetic acid; assay type: biochemical; details: plasma + 0.4 mg reducing agent, 5 min 37° C., then iodoacetic acid
What Coagulation factor F II was measured for each of the following?

For the compound OCCS , report Coagulation factor F II.
74 % of control

Please give measured Coagulation factor F II of the following entry: O=C(O)CCCCC1CCSS1 (stereo not shown)
103 % of control

Note down Coagulation factor F II recorded for O[C@H](CS)[C@@H](O)CS
35 % of control

Supply recorded Coagulation factor F II for O[C@H](CS)[C@H](O)CS here.
41 % of control

* * *

Exercise: for every item that follows, state its recorded Coagulation factor F XII.
Target: F XII (Homo sapiens, UniProt P00748)
Construct: from tissue; host or cells: human citrated blood plasma
Sequence (P00748 20-615): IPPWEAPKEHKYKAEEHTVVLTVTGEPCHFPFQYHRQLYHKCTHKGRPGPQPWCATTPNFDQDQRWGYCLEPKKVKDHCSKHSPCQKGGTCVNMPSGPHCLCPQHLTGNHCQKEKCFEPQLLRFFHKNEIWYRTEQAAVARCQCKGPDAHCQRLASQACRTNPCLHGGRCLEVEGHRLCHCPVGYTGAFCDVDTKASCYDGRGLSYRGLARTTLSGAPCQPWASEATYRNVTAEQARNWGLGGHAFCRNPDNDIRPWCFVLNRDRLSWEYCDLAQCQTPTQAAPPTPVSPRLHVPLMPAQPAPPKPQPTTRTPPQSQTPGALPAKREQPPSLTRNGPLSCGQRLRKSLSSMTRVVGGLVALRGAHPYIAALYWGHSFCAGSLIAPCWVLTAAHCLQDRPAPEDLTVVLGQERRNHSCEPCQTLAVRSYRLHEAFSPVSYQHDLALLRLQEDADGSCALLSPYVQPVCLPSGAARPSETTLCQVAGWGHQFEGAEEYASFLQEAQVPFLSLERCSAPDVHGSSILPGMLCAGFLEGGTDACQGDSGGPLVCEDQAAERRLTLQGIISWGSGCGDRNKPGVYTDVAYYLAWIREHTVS
Assay: Coagulation factor XII activity in plasma after reducing agent + iodoacetic acid
Assay type: biochemical
Conditions: plasma + 0.4 mg reducing agent, 5 min 37° C., then iodoacetic acid

Provide the reported Coagulation factor F XII (system: F XII (Homo sapiens, UniProt P00748)) for OCCS
121 % of control

State Coagulation factor F XII on F XII (Homo sapiens, UniProt P00748). Entry: O[C@H](CS)[C@@H](O)CS
0 % of control

Recall the reported Coagulation factor F XII of O=C(O)CCCCC1CCSS1 (stereo not shown) on F XII (Homo sapiens, UniProt P00748) and write it down.
98 % of control

Give Coagulation factor F XII for this entry on F XII (Homo sapiens, UniProt P00748): O[C@H](CS)[C@H](O)CS
0 % of control

* * *

target: F VIII (Homo sapiens, UniProt P00451); construct: from tissue; host or cells: human citrated blood plasma; experiment: Coagulation factor VIII activity in plasma after reducing agent + iodoacetic acid; type: biochemical; details: plasma + 0.4 mg reducing agent, 5 min 37° C., then iodoacetic acid
Sequence (P00451 20-1332 limits assumed): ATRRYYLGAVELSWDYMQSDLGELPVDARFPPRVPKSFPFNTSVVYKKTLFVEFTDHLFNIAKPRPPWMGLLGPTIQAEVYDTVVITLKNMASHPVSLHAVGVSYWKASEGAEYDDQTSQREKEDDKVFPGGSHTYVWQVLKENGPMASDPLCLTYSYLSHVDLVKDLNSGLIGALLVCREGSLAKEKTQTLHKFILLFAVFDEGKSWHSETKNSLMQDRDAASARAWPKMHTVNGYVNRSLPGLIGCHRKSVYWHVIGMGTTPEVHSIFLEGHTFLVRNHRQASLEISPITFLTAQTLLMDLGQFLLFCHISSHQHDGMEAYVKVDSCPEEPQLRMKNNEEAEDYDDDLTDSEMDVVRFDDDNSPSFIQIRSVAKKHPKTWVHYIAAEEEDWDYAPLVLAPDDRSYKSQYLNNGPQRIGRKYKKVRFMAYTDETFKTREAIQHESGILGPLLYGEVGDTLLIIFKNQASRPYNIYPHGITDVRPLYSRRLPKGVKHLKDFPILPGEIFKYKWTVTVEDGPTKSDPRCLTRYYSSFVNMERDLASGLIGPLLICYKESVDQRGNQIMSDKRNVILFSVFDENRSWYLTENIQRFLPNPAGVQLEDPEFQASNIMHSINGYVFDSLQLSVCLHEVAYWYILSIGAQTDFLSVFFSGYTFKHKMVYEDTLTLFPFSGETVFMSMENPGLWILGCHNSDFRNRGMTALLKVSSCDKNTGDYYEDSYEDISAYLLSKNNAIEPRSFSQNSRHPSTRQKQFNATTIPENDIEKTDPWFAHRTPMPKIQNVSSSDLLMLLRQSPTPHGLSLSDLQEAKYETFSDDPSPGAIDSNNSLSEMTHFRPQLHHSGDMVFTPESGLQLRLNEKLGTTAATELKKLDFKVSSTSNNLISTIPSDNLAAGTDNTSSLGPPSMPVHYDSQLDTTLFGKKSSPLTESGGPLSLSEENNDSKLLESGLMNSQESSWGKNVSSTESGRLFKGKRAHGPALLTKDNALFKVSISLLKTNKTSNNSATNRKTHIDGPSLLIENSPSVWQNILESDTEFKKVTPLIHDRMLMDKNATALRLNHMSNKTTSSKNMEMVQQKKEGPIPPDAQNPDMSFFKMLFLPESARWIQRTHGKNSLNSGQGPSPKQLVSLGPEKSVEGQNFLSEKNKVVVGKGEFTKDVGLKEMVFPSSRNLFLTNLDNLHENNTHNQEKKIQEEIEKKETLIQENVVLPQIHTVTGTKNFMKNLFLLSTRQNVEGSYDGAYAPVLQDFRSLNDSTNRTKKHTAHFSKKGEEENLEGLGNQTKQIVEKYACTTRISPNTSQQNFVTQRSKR
Sequence (P00451 1668-2351 limits assumed): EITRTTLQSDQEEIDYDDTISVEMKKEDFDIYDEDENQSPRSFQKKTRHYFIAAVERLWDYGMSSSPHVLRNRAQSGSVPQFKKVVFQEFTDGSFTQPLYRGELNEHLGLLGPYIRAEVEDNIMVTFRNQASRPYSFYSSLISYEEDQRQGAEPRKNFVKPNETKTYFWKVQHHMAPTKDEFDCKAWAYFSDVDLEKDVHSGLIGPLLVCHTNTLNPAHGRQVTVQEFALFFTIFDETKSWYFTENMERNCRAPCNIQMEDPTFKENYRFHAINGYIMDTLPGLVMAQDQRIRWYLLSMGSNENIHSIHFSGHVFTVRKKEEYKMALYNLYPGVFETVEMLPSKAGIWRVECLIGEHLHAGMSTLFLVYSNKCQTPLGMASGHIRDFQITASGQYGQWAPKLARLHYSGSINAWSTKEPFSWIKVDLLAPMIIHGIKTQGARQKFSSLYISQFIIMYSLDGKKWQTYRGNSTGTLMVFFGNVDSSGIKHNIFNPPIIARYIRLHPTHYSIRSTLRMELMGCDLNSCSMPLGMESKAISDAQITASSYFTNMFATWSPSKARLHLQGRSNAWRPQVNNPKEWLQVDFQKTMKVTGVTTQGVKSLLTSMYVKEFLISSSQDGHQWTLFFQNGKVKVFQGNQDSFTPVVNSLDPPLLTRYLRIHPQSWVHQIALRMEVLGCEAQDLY
quantityKind: Coagulation factor F VIII

Check the records and state Coagulation factor F VIII for O[C@H](CS)[C@@H](O)CS [DTE, dithioerythritol]
93 % of control

Identify Coagulation factor F VIII associated with the compound OCCS [mercaptoethanol]
85 % of control

In one line, give reported Coagulation factor F VIII of the entry O=C(O)CCCCC1CCSS1 (stereo not shown) [lipoic acid] .
111 % of control

// Input: O[C@H](CS)[C@H](O)CS [DTT, dithiothreitol] . Output its Coagulation factor F VIII only.
52 % of control

Numbers sourced from patent US4229435A.
